Listing of recorded Hepatotoxicity (choleostasis) by entry.
- assayConditions: human

// worked examples, Hepatotoxicity (choleostasis) included
C[C@H]1CC(=O)C[C@@H]2CC[C@H]3[C@@H]4CC[C@H](O)[C@@]4(C)CC[C@@H]3[C@]21C [MESTEROLONE] | 0
Cc1ccc(O)c2ncccc12 [TILIQUINOL] | 0
O=C(O)c1cc(/N=N/c2ccc(S(=O)(=O)Nc3ccccn3)cc2)ccc1O [SULFASALAZINE] | 14
CC1=C(/C=C/C(C)=C/C=C/C(C)=C/C(=O)Nc2ccc(O)cc2)C(C)(C)CCC1 [FENRETINIDE] | 0
COc1ccc(C(CN(C)C)C2(O)CCCCC2)cc1 (stereo unspecified) [VENLAFAXINE] | 1

For reference, reported Hepatotoxicity (choleostasis) for Fc1ccccc1C1=NCC(=S)N(CC(F)(F)F)c2ccc(Cl)cc21 [QUAZEPAM] stands at 0

CO[C@H]1C[C@H](O[C@H]2[C@H](C)[C@@H](O[C@@H]3O[C@H](C)C[C@H](N(C)C)[C@H]3OC(C)=O)[C@@H](C)C[C@@]3(CO3)C(=O)[C@H](C)[C@@H](OC(C)=O)[C@@H](C)[C@@H](C)OC(=O)[C@@H]2C)O[C@@H](C)[C@@H]1OC(C)=O [TROLEANDOMYCIN] yielded Hepatotoxicity (choleostasis) of 26

---

- assayConditions: human, serum
Returns one of Y or N; Y when Hepatotoxicity (acute) is >= 2.

A selection of reference data follows.
CN(Cc1cnc2nc(N)nc(N)c2n1)c1ccc(C(=O)N[C@@H](CCC(=O)O)C(=O)O)cc1 [METHOTREXATE] | Y
O=c1[nH]c2ccccc2n1CCCN1CCC(n2c(=O)[nH]c3cc(Cl)ccc32)CC1 | N
C1CCC(C(CC2CCCCN2)C2CCCCC2)CC1 (centres undefined) | Y
O=C1CN2Cc3c(ccc(Cl)c3Cl)N=C2N1 [ANAGRELIDE] | N
CSc1nc2cc(Cl)c(Oc3cccc(Cl)c3Cl)cc2[nH]1 | N
Clc1ccccc1C(c1ccccc1)(c1ccccc1)n1ccnc1 | N

Please look at the following molecule next.
Please check the record C[C@H]1c2cccc(O)c2C(=O)C2=C(O)[C@]3(O)C(=O)C(C(N)=O)=C(O)[C@@H](N(C)C)[C@@H]3[C@@H](O)[C@@H]21.O and state if its Hepatotoxicity (acute) is at or above 2. Y

---

- assayConditions: human
quantityMeasured: Hepatotoxicity (cytolytic)
Reply with the value as a number alone.

// worked examples, Hepatotoxicity (cytolytic) included
C[C@@H](CN1CC(=O)NC(=O)C1)N1CC(=O)NC(=O)C1 | 0
C[C@H]1C[C@H]2[C@@H]3CCC4=CC(=O)C=C[C@]4(C)[C@@]3(Cl)[C@@H](O)C[C@]2(C)[C@@]1(O)C(=O)CO | 0
Cc1ncsc1CCCl | 3
COc1ccc2nc(NC(=O)Nc3ccccc3)sc2c1 | 2
CC(C)(S)[C@@H](N)C(=O)O | 5
NNc1nnc(NN)c2ccccc12 [DIHYDRALAZINE] | 17
CC(=O)c1ccc2c(c1)N(CCCN1CCC(CCO)CC1)c1ccccc1S2 | 0
COc1ccc(C(=O)Nc2ccccc2CCC2CCCCN2C)cc1 (stereo unspecified) [ENCAINIDE] | 0

Sure, the documented Hepatotoxicity (cytolytic) for c1cnc(N2CCN(Cc3ccc4c(c3)OCO4)CC2)nc1 is 0

Consider CN(C/C=C/C#CC(C)(C)C)Cc1cccc2ccccc12 . Its measured Hepatotoxicity (cytolytic) is 7

Consider CC(=O)c1ccc(S(=O)(=O)NC(=O)NC2CCCCC2)cc1 [ACETOHEXAMIDE] . Its measured Hepatotoxicity (cytolytic) is 2

So, CC(C)[C@@H]1NC(=O)[C@H](CCCCN)NC(=O)[C@@H](Cc2c[nH]c3ccccc23)NC(=O)[C@H](Cc2ccc(O)cc2)NC(=O)[C@@H](NC(=O)[C@H](N)Cc2ccc3ccccc3c2)CSSC[C@@H](C(=O)N[C@H](C(N)=O)[C@@H](C)O)NC1=O [LANREOTIDE] ? Its Hepatotoxicity (cytolytic) was 0

Record COC(=O)Nc1nc2cc(C(=O)c3ccc(F)cc3)ccc2[nH]1 , field Hepatotoxicity (cytolytic): 1

// field: Hepatotoxicity (cytolytic); key: COCCOC(=O)C1=C(C)NC(C)=C(C(=O)OC(C)C)C1c1cccc([N+](=O)[O-])c1 (stereo unspecified) ; value = 1

Data point: O=C1CC[C@@]2(O)[C@H]3Cc4ccc(O)c5c4[C@@]2(CCN3CC2CC2)[C@H]1O5 [NALTREXONE] ; Hepatotoxicity (cytolytic) = 3

// Cc1ccc(C(=O)Nc2ccc(S(=O)(=O)O)c3cc(S(=O)(=O)O)cc(S(=O)(=O)O)c23)cc1NC(=O)c1cccc(NC(=O)Nc2cccc(C(=O)Nc3cc(C(=O)Nc4ccc(S(=O)(=O)O)c5cc(S(=O)(=O)O)cc(S(=O)(=O)O)c45)ccc3C)c2)c1 : Hepatotoxicity (cytolytic) value = 1
